B1: ADAMTS4 (parent)
chain: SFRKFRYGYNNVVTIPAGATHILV

# Variants of: B1
# measurement description: protein stability index of a GFP-peptide fusion (GPS, HEK-293T) (PSI 1-6); higher = more stable;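 note: lentivirally expressed fusions sorted by FACS into six bins by GFP to DsRed ratio, PSI derived from sequencing read proportions per bin multiplied by bin number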
# applied conditions: c terminus: a fixed tail appended
Decide using protein stability index: a value greater than or equal to 2 is YES, a smaller one is NO.

F5P ... NO
T20Q ... YES
Y9G ... YES
F5T ... YES
V12H ... YES

Request: Reported protein stability index reaches at least 2 for `A19V` ?
Response: NO

Request: Given `N10K` , state whether its protein stability index is at least 2.
Response: NO
